experiment: Cataleptic activity (Courvoisier's method); settings: in vivo, sc; rat, s.c., every 30 min till 240 min; Table II; read-out: Catalepsy ED50
measurementName: ED50 at 4 h (mg/kg)
Number in mg/kg, nothing else.

Name the reported ED50 at 4 h value associated with the compound CN(C)CCCN1c2ccccc2Sc2ccc(Cl)cc21 [chlorpromazine, reference compound]
7

###

assay: in vivo; details: iv, mouse, i.v. tail injection, mortality after one week, Table I, read-out: Toxicity LD50
measurementName: LD50 at 168 h (mg/kg)
Number in mg/kg, nothing else.

Name the reported LD50 at 168 h value associated with the compound CCNc1nc(OC)c(C(=O)NCC2CCCN2CC)nc1Cl (stereo not shown)
61.1

Name the reported LD50 at 168 h value associated with the compound CCN1CCCC1CNC(=O)c1nc(Cl)cnc1OC (stereo not shown)
170

Name the reported LD50 at 168 h value associated with the compound CCOc1nc(N)c(Cl)nc1C(=O)NCCN(CC)CC
72.1

Name the reported LD50 at 168 h value associated with the compound CCN(CC)CCNC(=O)c1nc(Cl)c(NC)nc1OC
91

Name the reported LD50 at 168 h value associated with the compound CCNc1nc(OC)c(C(=O)NCC2CCCN2C)nc1Cl (stereo not shown)
45

Name the reported LD50 at 168 h value associated with the compound CCN(CC)CCNC(=O)c1cc(Cl)c(N)cc1OC [metoclopramide, reference compound]
61

Name the reported LD50 at 168 h value associated with the compound CN(C)CCCN1c2ccccc2Sc2ccc(Cl)cc21 [chlorpromazine, reference compound]
71.4

Name the reported LD50 at 168 h value associated with the compound CCNc1nc(OC)c(C(=O)NCCN(CC)CC)nc1Cl
91

Name the reported LD50 at 168 h value associated with the compound CCN1CCCC1CNC(=O)c1nc(Cl)c(N)nc1OC (stereo not shown)
91.3

Name the reported LD50 at 168 h value associated with the compound CCN(CC)CCNC(=O)c1nc(Cl)c(N)nc1OC
150
